Measured Plant response rating, Ryegrass, Italian values are reported for all entries that follow.
# Tested on: ryegrass, Italian (Italian ryegrass, Lolium multiflorum)
# test.method.notes: Test C greenhouse herbicide test, pre- and postemergence
# Type: in vivo
# test.settings: Postemergence, 31 g ai/ha; scale 0 to 100 (0 no effect, 100 complete control)
readout: Plant response rating, Ryegrass, Italian

In [3]: df
Out[3]:
                                smiles_data                                   readout  observed_result
0  Cc1ccc2ccccc2c1-c1c(OC(=O)N2CCOCC2)c(Br)nn(C)c1=O  Plant response rating, Ryegrass, Italian                0
1  CC(=O)Oc1c(Br)nn(C)c(=O)c1-c1c(C)ccc2ccccc12  Plant response rating, Ryegrass, Italian               70
2  CC(=O)Oc1c(C)nn(C)c(=O)c1-c1c(C)cc(C)c2ccccc12  Plant response rating, Ryegrass, Italian               90
3  CC(=O)Oc1c(C)nn(C)c(=O)c1-c1c([N+](=O)[O-])ccc2ccccc12  Plant response rating, Ryegrass, Italian               50

Values compiled from patent US10597388B2.
